target: VTCN1, Q7Z7D3
Sequence (Q7Z7D3 whole entry): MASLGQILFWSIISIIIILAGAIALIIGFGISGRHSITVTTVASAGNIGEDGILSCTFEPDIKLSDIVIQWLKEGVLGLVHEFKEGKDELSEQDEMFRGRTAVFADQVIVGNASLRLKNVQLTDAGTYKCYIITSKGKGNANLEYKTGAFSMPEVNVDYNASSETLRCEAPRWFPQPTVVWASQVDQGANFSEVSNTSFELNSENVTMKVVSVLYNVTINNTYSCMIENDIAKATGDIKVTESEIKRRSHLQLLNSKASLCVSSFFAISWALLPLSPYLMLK
RECORDED ENDPOINT: binding in a display sort

# BINDER, RECORDED ENDPOINT, RESULT
data = [
    ("design_609_7ee6ce64-4629-41e8-bcb4-ba0da017284d_2287_dldesign_0_cycle1_af2pred (protein) SDLEATELQIKAARLVAEAKRALAELTPEEGLARAKELFAEAEKAVKAAAKLLSPEAGKALVAALKERSAAILAEAEKAAAA", "binding in a display sort", "not found (inactive)"),
    ("design_602_0a1f3d3d-7d26-454b-9b34-ebe8ef9bc7d4_2169_dldesign_0_cycle1_af2pred (protein) SAFEILKVIEEKAKEVYEITKEENPKIAKKIAAAAYTAGVALGAGDEEEAKKVIEKGKALADKEGAEKGKKALEEAVEEVKKKAKE", "binding in a display sort", "not found (inactive)"),
    ("design_605_6ebdab39-eaab-4492-afcb-164e20c3b25e_494_dldesign_0_cycle1_af2pred (protein) AEALEKGKAASAALDANIATGFATAEKTGDKAAAGAAAVAATAEAGAAIGPEAAEKGRRVMTSIFDGYVKA", "binding in a display sort", "not found (inactive)"),
    ("design_603_0b98da89-d791-4423-9b2d-fd1b7292da18_1531_dldesign_0_cycle1_af2pred (protein) SEAKEEAKKALERLKKVRERAKEEAPLLTPEERKELSELLAKAREYLNLALVSKDEKEAKKYVEKGKEYLEKAEKLIEKAKAKA", "binding in a display sort", "not found (inactive)"),
    ("design_597_f3dcd2b3-c7aa-4b15-88bc-bbb8d01a18cd_601_dldesign_0_cycle1_af2pred (protein) SKAEEKAKELEEKLKKAEELAKKDPKKGAKYAKEIAKEARKAGKETGETEKFAKIADKAYQIAAEAEFKAK", "binding in a display sort", "not found (inactive)"),
]
